These data points were gathered from the supplement of paper PMC13380429.

Test system: Vero E6 infected with SARS-CoV-2
Test: inhibition of SARS-CoV-2 cytopathic effect; higher = more antiviral protection, active = above 15
Details: 1 nM; 48 h
resultType: inhibition of SARS-CoV-2 cytopathic effect (%)

molecule	unitString	quantitativeResult
CC[C@@](C)(Nc1ccnc(-c2c[nH]c3ncccc23)n1)C(=O)NCC(F)(F)F [decernotinib]	%	-1.03
N[C@@H](C(=O)O)c1nn[nH]n1 (racemic) [tetrazol-5-yl-glycine-(RS)]	%	-2.49
CN1CCCN(C(c2ccccc2)c2ccc(Cl)cc2)CC1 (configuration not stated) [homochlorcyclizine]	%	2.1
Cc1ccc(NC(=O)C2(c3ccc4c(c3)OC(F)(F)O4)CC2)nc1-c1cccc(C(=O)O)c1 [lumacaftor]	%	2.48
CN[C@H](CC(C)C)C(=O)N[C@H]1C(=O)N[C@@H](CC(N)=O)C(=O)N[C@H]2C(=O)N[C@H]3C(=O)N[C@H](C(=O)N[C@H](C(=O)O)c4cc(O)cc(O)c4-c4cc3ccc4O)[C@H](O)c3ccc(c(Cl)c3)Oc3cc2cc(c3O[C@@H]2O[C@H](CO)[C@@H](O)[C@H](O)[C@H]2O[C@H]2C[C@](C)(N)[C@H](O)[C@H](C)O2)Oc2ccc(cc2Cl)[C@H]1O	%	0.55
O/N=C/c1ccc(-c2ccc(O)c(F)c2)c(Cl)c1O	%	-3.41
N=C(N)NC(=N)NCCc1ccccc1 [phenformin]	%	-3.22

* * *

Tested on: Vero E6 infected with SARS-CoV-2
Experiment: morphology score (similarity to uninfected cells); higher = more like uninfected cells
Details: 24 h
resultType: morphology score

compound	result
CCOc1cc(N2CCC(O)CC2)ccc1Nc1ncc2c(n1)N(C)c1ccccc1C(=O)N2C (0.833333 µM)	-0.0631
O=c1[nH]c2ccccc2n1C1CCN(CCCC(c2ccc(F)cc2)c2ccc(F)cc2)CC1 [pimozide] (10 µM)	0.48
C[C@@H]1O[C@@H](O[C@H]2[C@H](Oc3cc(O)c4c(c3)O[C@H](c3ccc(O)cc3)CC4=O)O[C@H](CO)[C@@H](O)[C@@H]2O)[C@H](O)[C@H](O)[C@H]1O [Naringin (Naringoside)] (10 µM)	0.254
CC[C@H]1OC(=O)[C@H](C)[C@@H](O[C@H]2C[C@@](C)(OC)[C@@H](O)[C@H](C)O2)[C@H](C)[C@@H](O[C@@H]2O[C@H](C)C[C@H](N(C)C)[C@H]2O)[C@](C)(O)C[C@@H](C)C(=O)[C@H](C)[C@@H](O)[C@]1(C)O [erythromycin] (10 µM)	-0.171
CC1(C)OC[C@H](NC(=O)Nc2ccc(Br)cc2Br)[C@H](c2ccccc2)O1 (10 µM)	-0.142
Cc1ccc(-c2nc3ccc(C)cn3c2CC(=O)N(C)C)cc1 (10 µM)	0.137
CC[C@]12CCCN3CCc4c(n(c5ccccc45)C(=O)C1)[C@@H]32 [vinburnine] (10 µM)	-0.0662
CC(C)N(CCCNC(=O)Nc1ccc(C(C)(C)C)cc1)C[C@H]1O[C@@H](n2ccc3c(N)ncnc32)[C@H](O)[C@@H]1O (10 µM)	-0.157
CS(=O)(=O)Nc1ccc(Cc2noc(-c3ccc4[nH]cc(CCN)c4c3)n2)cc1 (10 µM)	0.141
N[C@@H]1CN(c2c(F)cc3c(=O)c(C(=O)O)cn([C@@H]4C[C@@H]4F)c3c2Cl)CC12CC2 [sitafloxacin] (10 µM)	-0.0334
O=C(CCCCCCCn1cc(-c2cccnc2)nn1)Nc1ccccc1-c1ccccc1 (0.833333 µM)	-0.143
CCN(CC)CCCC(C)Nc1nc(C)cc(Nc2ccc3nc(C)cc(N)c3c2)n1 (centres undefined) (10 µM)	-0.115
O=C(/C=C/c1ccccc1)NC(NC(=S)Nc1cccc2cccnc12)C(Cl)(Cl)Cl (centres undefined) [salubrinal] (10 µM)	-0.178
CCn1c(-c2nonc2N)nc2c(C#CC(C)(C)O)ncc(OC[C@H]3CCCNC3)c21 (10 µM)	0.337

* * *

Tested on: Vero E6 infected with SARS-CoV-2
Assay: inhibition of SARS-CoV-2 cytopathic effect; higher = more antiviral protection, active = above 15
Conditions: 1 nM; 48 h
molecules and their reported inhibition of SARS-CoV-2 cytopathic effect
resultType: inhibition of SARS-CoV-2 cytopathic effect (%)

molecule	quantitativeResult
CC(C)C(=O)c1c(C(C)C)nn2ccccc12	2.15
Cc1cc(Cn2nnc3c(-c4ccco4)nc(N)nc32)ccc1N	3.17
COc1ccncc1C(=O)NC(=O)Nc1ccc(-c2ccccc2)c(C(F)(F)F)c1	-0.34
CC(OC(=O)NCC1(CC(=O)O)CCCCC1)OC(=O)C(C)C (stereo not given)	-7.45
CC#CCOC(=O)c1c(C)nc2sc3c(c2c1N)CCC(O)C3 (stereo not given)	1.8
Cc1cc(-c2ccc(CC(=O)Nc3ccc(-c4cccnc4)cc3)cc2)ccn1	-2.73
CSc1ccc(C(=O)c2[nH]c(=O)[nH]c2C)cc1	-4.27
COc1ccc(Cl)cc1C(=O)NCCc1ccc(C(=O)O)cc1 [meglitinide]	2.2
CCN1/C(=C/C(C)=O)Sc2ccc(OC)cc21	1.8
Cc1ccc2cc(-c3c(C)ccc(C(=O)c4c(-c5ccccc5)n(C)n(-c5ccccc5)c4=O)c3N)ccc2n1	-0.74

* * *

Measured inhibition of SARS-CoV-2 cytopathic effect, listed per entry.
Test system: Vero E6 infected with SARS-CoV-2
Assay: inhibition of SARS-CoV-2 cytopathic effect; higher = more antiviral protection, active = above 15
Settings: 1 nM; 48 h
resultType: inhibition of SARS-CoV-2 cytopathic effect

molecule	result
CCOc1cc([C@@H](CS(C)(=O)=O)N2C(=O)c3cccc(NC(C)=O)c3C2=O)ccc1OC	2.28% (inactive)
N#C/C(=C\c1cccn1S(=O)(=O)c1cccc([N+](=O)[O-])c1)S(=O)(=O)c1ccc(F)cc1	-0.59% (inactive)
CCCCCCOc1ccccc1C(N)=O [exalamide]	-5.16% (inactive)
Cc1ncc(CO)c(C=O)c1O	4.33% (inactive)
CC(=O)c1ccc2c(c1)N(CCCN(C)C)c1ccccc1S2	-0.95% (inactive)
O=C(NO)C1(CS(=O)(=O)c2ccc(Oc3ccc(Cl)cc3)cc2)CCOCC1	-0.75% (inactive)
CN1C(=O)N[C@H](Cc2c[nH]c3c(Cl)cccc23)C1=O	-3.13% (inactive)
CC(=O)OCC1=C(C(=O)O)N2C(=O)[C@@H](NC(=O)Cc3cccs3)[C@H]2SC1	0.91% (inactive)
COC1=C(OC)C(=O)C(CCCCCCCCCCO)=C(C)C1=O	-0.23% (inactive)

* * *

Reported SARS-CoV-2 infection rate values for the following compounds.
System: Vero E6 infected with SARS-CoV-2
Assay: SARS-CoV-2 infection rate relative to infected DMSO; higher = more infection, active = 60 or less
Conditions: 24 h
resultType: SARS-CoV-2 infection rate (%)

compound	quantitativeResult
O=c1c(-c2ccc(O)cc2)coc2cc(O)cc(O)c12 [genistein] (10 µM)	119
O=c1[nH]c(=O)n([C@H]2C[C@H](O)[C@@H](CO)O2)cc1F [floxuridine] (0.833333 µM)	99
COc1nc(C)nc(Cl)c1NC1=NCCN1 [moxonidine] (10 µM)	102
COCCOc1ccc2c(c1)ncn2-c1ccc2cccc(N3CCC(N)CC3)c2n1 (0.833333 µM)	106
COc1cccc(-c2cc(F)ccc2[C@H]2Cc3nc(N)nc(C)c3C(=O)N2)n1 (0.833333 µM)	99
O[C@@H](CN1CCC(Cc2ccc(F)cc2)CC1)c1ccc(Cl)cc1 (racemic) [eliprodil] (10 µM)	87
CN(C)CC/C=C1\c2ccccc2CSc2ccccc21 [dosulepin] (10 µM)	99.5
O=C(c1ccc(F)c(F)c1Nc1ccc(I)cc1F)N1CC(O)([C@@H]2CCCCN2)C1 [cobimetinib] (0.833333 µM)	116
Cc1nc2ccccc2c(-c2ccc3c4c(ccnc24)CCO3)c1[C@H](OC(C)(C)C)C(=O)O (10 µM)	104
C=CCc1ccc(O)c(-c2ccc(O)c(CC=C)c2)c1 [honokiol] (10 µM)	80.5
CC(C)(COP(=O)(O)OP(=O)(O)OC[C@H]1O[C@@H](n2cnc3c(N)ncnc32)[C@H](O)[C@@H]1OP(=O)(O)O)[C@@H](O)C(=O)NCCC(=O)NCCS [coenzyme-A] (10 µM)	102
Clc1ccc(C(Cn2ccnc2)OCc2ccsc2Cl)c(Cl)c1 (stereo unspecified) [tioconazole] (10 µM)	106
CCOC(=O)c1ncn2c1[C@@H]1CCCN1C(=O)c1cc(OC)ccc1-2 (10 µM)	95
CN(C/C=C/C#CC(C)(C)C)Cc1cccc2ccccc12 [terbinafine] (10 µM)	81
COc1cc2c(cc1OC)CN(CCc1ccc(NC(=O)c3cc(OC)c(OC)cc3NC(=O)c3cnc4ccccc4c3)cc1)CC2 [tariquidar] (10 µM)	108
COc1ccc(Cl)cc1[C@]1(F)C(=O)Nc2cc(C(F)(F)F)ccc21 [flindokalner] (10 µM)	99.5
